# method.description: viability loss with induced miR-34 in A549 – imaging, A549 dox-inducible miR-34, nuclei and caspase counts, primary screen (AID 1347080); further: test concentration not given here
# cond: A549 miR-34 inducible, Hoechst nuclei count, 48 h; measured here: relative caspase fold change +Dox/-Dox
// NB: equality with 0.9 counts as N; only fold change strictly below is Y

Q. Does the reported fold change of Nc1ncnc2c1c(-c1cccc(OCc3ccccc3)c1)cn2C1CC(CN2CCCC2)C1 (configuration not stated) stay below 0.9?
A. Y

Q. And what about the compound NC1(c2ccc(-c3nc4ccn5c(=O)[nH]nc5c4cc3-c3ccccc3)cc2)CCC1 ?
A. N

Q. And what about the compound COc1ccccc1N1CCN(CCn2c(=O)[nH]c3c([nH]c4ccccc43)c2=O)CC1 ?
A. Y

Q. And what about the compound CCCCCCCC/C=C\CCCCCC(=O)O ?
A. Y

Q. And what about the compound CCCCC/C=C\C/C=C\C/C=C\C/C=C\CCCC(=O)NC[C@]1(C)CCC[C@]2(C)c3ccc(C(C)C)cc3CC[C@@H]12 ?
A. N

Q. And what about the compound CCCCCCCCCCCC(=O)c1nc2ncccc2o1 ?
A. N

Q. And what about the compound CCCCCCCCCCCC(=O)CC(=O)N[C@H]1CCOC1=O ?
A. N

Q. And what about the compound CCc1c(OCCCCCC(C)(C)c2nn[nH]n2)cc(O)cc1C(C)=O ?
A. Y

Q. And what about the compound COc1ccc(-c2c(-c3ccc(O)cc3O)n[nH]c2C)cc1 ?
A. Y

Q. And what about the compound CCCC[C@H](CCC(=O)O)NC(=O)CCCCCCc1ccccc1 ?
A. N

Q. And what about the compound CCCCCCCCCCCCCCCC(=O)SCCOP(=O)([O-])OCC[N+](C)(C)C ?
A. N

Q. And what about the compound C[C@H](Cc1ccc(O)c(O)c1)[C@@H](C)Cc1ccc(O)c(O)c1 ?
A. Y

Q. And what about the compound Cc1ccc2nc(NCCN)c3ncc(C)n3c2c1 ?
A. Y

Q. And what about the compound CCCCC[C@H](O)/C=C/[C@H]1[C@H](O)CC(=O)[C@@H]1CC(=O)CCCCC(=O)O ?
A. N

Q. And what about the compound CN1CCN(C(=O)c2nc3ccc(Cl)cc3[nH]2)CC1 ?
A. N

Q. And what about the compound CCCCCN=c1ccn(Cc2ccccc2)c2ccccc12 ?
A. Y

Q. And what about the compound CCCCC[C@H](O)/C=C/[C@H]1CC[C@H](O)[C@@H]1C/C=C\CCCC(=O)O ?
A. N

Q. And what about the compound O=C(OCCN1CCCCC1)c1c[nH]c2ccccc12 ?
A. Y

Q. And what about the compound N[C@@H](CSCCB(O)O)C(=O)O ?
A. N

Q. And what about the compound O=C(O)CCC/C=C\C[C@@H]1[C@@H](/C=C/[C@@H](O)CCc2cccc(C(F)(F)F)c2)[C@H](O)C[C@@H]1O ?
A. N

Q. And what about the compound N[C@H]1CCN(O)C1=O ?
A. Y

Q. And what about the compound CO[C@@H]1[C@H](O)[C@@H](CO)O[C@H]1n1cnc2c(NC3CCCCC3)ncnc21 ?
A. N

Q. And what about the compound COc1cc([C@@H]2c3cc4c(cc3[C@@H](OC3OC5COC(C)OC5C(O)C3O)[C@H]3COC(=O)[C@H]23)OCO4)cc(OC)c1O (some centres not stated) ?
A. N

Q. And what about the compound CN1C[C@@H]2c3ccccc3Oc3ccc(Cl)cc3[C@H]2C1 ?
A. N

Q. And what about the compound O=c1[nH]c2cc(Cl)ccc2c(O)c1-c1cccc(Oc2ccccc2)c1 ?
A. Y

Q. And what about the compound Clc1ccc(CCCOCCCN2CCCCC2)cc1 ?
A. N

Q. And what about the compound CCCCCCCCCC(=O)CC(=O)N[C@H]1CCOC1=O ?
A. Y

Q. And what about the compound CC#CCC(C)C(=O)/C=C/[C@@H]1[C@H]2C/C(=C/CCCC(=O)O)C[C@H]2C[C@H]1O (some centres not stated) ?
A. N

Q. And what about the compound CC(C)=CCC/C(C)=C/CC/C(C)=C/CC[C@]1(C)CCc2cc(O)cc(C)c2O1 ?
A. N

Q. And what about the compound CCS(=O)(=O)N(C)[C@H]1c2cc(C#N)ccc2OC(C)(C)[C@@H]1O (racemic) ?
A. N

Q. And what about the compound Cc1ccc(S(=O)(=O)Cc2nc(-c3ccc(C(=O)NCc4cccnc4)cc3)oc2C)cc1 ?
A. Y

Q. And what about the compound CCc1cc(C(C)=O)c(O)cc1OCCCCCC(C)(C)c1nn[nH]n1 ?
A. N

Q. And what about the compound CC(C)=CCC/C(C)=C/CC/C(C)=C/CSc1ccccc1C(N)=O ?
A. Y

Q. And what about the compound CCCNC(=O)Nc1ccc(Oc2ncnc3cc(OC)c(OC)cc23)cc1Cl ?
A. Y

Q. And what about the compound CCCCC[C@H](O)/C=C/[C@@H]1[C@H](C/C=C\CCCC(=O)O)[C@H](O)C[C@H]1O ?
A. N

Q. And what about the compound c1ccc([B-]2(c3ccccc3)[NH2+]CCO2)cc1 ?
A. N

Q. And what about the compound CCCCCCCC/C=C\CCCCCCCC(=O)OCC(O)COP(=O)(O)O (configuration not stated) ?
A. Y

Q. And what about the compound O=C(O)CCC/C=C\C[C@@H]1[C@@H](/C=C/[C@@H](O)Cc2ccccc2)[C@H](O)C[C@@H]1O ?
A. N
